Cited source for all entries: a melting point compilation (Tetko et al.)

Each entry below carries its recorded melting point.
Measurement label: melting point (°C)

- Compound: "Brc1cccnc1Br"
  Test result: 59
- Compound: "CCOC(=O)CCC(=O)O"
  Test result: 8
- Compound: "c1ccc(Oc2nc(-c3ccccc3)nc3nc4ccccc4n23)cc1"
  Test result: 247
- Compound: "CCNC(C)CC (centres undefined)"
  Test result: -104
- Compound: "Fc1cccc(F)c1CCl"
  Test result: 34
- Compound: "O=Cc1cc(O)c(O)cc1O"
  Test result: 223
- Compound: "O=C1OC(=O)C2Cc3ccccc3CC12 (centres undefined)"
  Test result: 188
- Compound: "NC(=O)C=Cc1ccc(C=CC(N)=O)cc1"
  Test result: 320
- Compound: "CCOC(C)=NOc1ccc([N+](=O)[O-])cc1[N+](=O)[O-]"
  Test result: 112
- Compound: "CCCCNC(=O)NCC(=O)O"
  Test result: 140
- Compound: "CC12CCC(C(C(c3ccccc3)c3ccccc3)C1=O)C2(C)C (centres undefined)"
  Test result: 137
- Compound: "COC(=O)C12ON1c1ccccc1C2=O (centres undefined)"
  Test result: 221
- Compound: "Nc1c(F)c(F)c(-c2c(F)c(F)c(F)c(F)c2F)c(F)c1F"
  Test result: 146
- Compound: "C1CCN2CC3CC(CN4CCCCC34)C2C1 (centres undefined)"
  Test result: 30.5
- Compound: "Cc1ccc(NO)cc1"
  Test result: 96
- Compound: "Oc1cccc(N2CCNCC2)c1"
  Test result: 207
- Compound: "CNC(=NCCSCc1nc[nH]c1C)NC#N"
  Test result: 141
- Compound: "N#Cc1ccccc1CBr"
  Test result: 72
- Compound: "OCC1CCC(n2cnc3c(O)ncnc32)O1 (centres undefined)"
  Test result: 175
- Compound: "C#CC1=C(C=NNc2ccc([N+](=O)[O-])cc2[N+](=O)[O-])CCCC1"
  Test result: 190
- Compound: "COc1ccc(/N=N/c2c(N)nn3c(-c4ccccc4)cc(=O)[nH]c23)cc1"
  Test result: 278
- Compound: "Oc1ccccc1N1CCCC1"
  Test result: 111
- Compound: "ClCc1cc(Br)cc2c1OCOC2"
  Test result: 103
- Compound: "Cn1c(=O)c(C2=NNC(=O)C2=CNc2ccccc2)c(O)c2ccccc21"
  Test result: 272
- Compound: "O=C(O)c1cc([N+](=O)[O-])ccc1Br"
  Test result: 180
- Compound: "Cc1cc(C)c(Br)c(C)c1Br"
  Test result: 65.5
- Compound: "Clc1cc(Cl)c2c(c1Cl)Oc1ccccc1O2"
  Test result: 128
- Compound: "CC(C)CSCC(C)C"
  Test result: -106
- Compound: "NS(=O)(=O)c1cc2c(s1)S(=O)(=O)CCC2=O"
  Test result: 242
- Compound: "COc1cccc(CCC(=O)O)c1"
  Test result: 45
- Compound: "Nc1ccc(C(F)(F)F)cc1Br"
  Test result: 29.5
